tested on: MAPK/MEK/B-raf pathway (AP1-bla A375 cells); test: MAPK/MEK/B-raf AP1-bla A375 inhibitor screen, constitutively activated (negative control of the Wnt assay); type: cell-based; details: read-out: AP receptor gene activity IC50
VALUE_KIND: IC50

Please list IC50 recorded for the compound CN1CC(=O)N2C[C@@H](NC(=O)Cc3ccc4ccccc4c3)C[C@H]2COc2ccc(F)cc2C(=O)N(C)[C@H](C(=O)NCc2cccc3ccccc23)CCC1=O > 50 µM

---

Parameter half-life at 10 µM: see the listing below.
Test: Metabolic stability assay, human microsomes
Format: in vitro ADME
Conditions: both sexes, human, microsomes
Procedure: 4. Plasma and Metabolic Stability Assays […] Microsomes from a human 50 donor mixed gender pool and 1:1 mixtures of microsomes from CD-1 mouse single-gender pools are purchased from Celsis (Belgium). […] After acetonitrile precipitation (2 volumes) and HPLC/MS/MS analysis metabolic turnover is expressed in % of the initial 0 minutes value and half life T½ (min) is calculated. […]
Your answer should be a number followed by the unit of measure.

Use these answered entries as a reference point.
CN1CCC[C@H](NC(=O)Cc2cccc3ccccc23)C(=O)N2C[C@@H](NC(=O)Cc3ccc4ccccc4c3)C[C@H]2COc2cccc(c2)C1=O [Ex. 505] : 21 min
CN1CCC[C@H](NC(=O)Cc2cccc3ccccc23)C(=O)N2C[C@@H](NC(=O)Nc3cccc(N(C)C)c3)C[C@H]2COc2cccc(c2)C1=O [Ex. 512] : 17 min
CC(C)CN[C@H]1C[C@H]2COc3cccc(c3)C(=O)N(C)[C@H](C(=O)NCc3ccc4ccccc4c3)COCC(=O)N2C1 [Ex. 373] : 12 min
CN1CCC[C@H](NC(=O)OCc2ccccc2)C(=O)N[C@@H]2C[C@@H](COc3ccc(F)cc3C1=O)N(C(=O)OC(C)(C)C)C2 [Ex. 403] : 36 min
CCCCC(=O)N[C@H]1C[C@H]2COc3ccc(F)cc3C(=O)N(C)[C@@H](C(=O)NCc3ccc4ccccc4c3)CCC(=O)N(C)CC(=O)N2C1 [Ex. 103] : 35 min

Please list half-life at 10 µM recorded for the compound CCCCCCCCCC(=O)N[C@H]1CN(C)C(=O)c2cccc(c2)OC[C@@H]2C[C@H](NC(=O)Cc3c[nH]c4ccccc34)CN2C(=O)CN(C)C1=O [Ex. 213] 16 min

---

Target: human Kv1.3 (Homo sapiens, UniProt P22001)
Construct: expressed in transfected cells; host or cells: Jurkat cells
Sequence (P22001 whole entry): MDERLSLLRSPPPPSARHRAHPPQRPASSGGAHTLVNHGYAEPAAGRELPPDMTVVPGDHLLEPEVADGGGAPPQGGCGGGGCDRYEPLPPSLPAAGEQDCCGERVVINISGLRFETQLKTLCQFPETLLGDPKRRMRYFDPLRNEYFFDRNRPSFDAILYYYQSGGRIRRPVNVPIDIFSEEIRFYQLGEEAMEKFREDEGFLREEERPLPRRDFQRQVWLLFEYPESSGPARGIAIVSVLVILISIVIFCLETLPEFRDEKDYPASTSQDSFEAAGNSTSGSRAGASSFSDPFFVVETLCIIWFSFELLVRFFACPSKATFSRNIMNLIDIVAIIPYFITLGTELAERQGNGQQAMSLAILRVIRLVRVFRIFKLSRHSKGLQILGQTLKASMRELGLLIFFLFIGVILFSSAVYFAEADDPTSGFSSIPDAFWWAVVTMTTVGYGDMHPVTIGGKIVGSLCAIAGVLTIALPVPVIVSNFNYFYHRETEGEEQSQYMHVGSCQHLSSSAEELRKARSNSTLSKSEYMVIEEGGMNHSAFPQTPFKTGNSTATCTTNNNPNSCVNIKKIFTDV
Assay: Thallium-sensitive fluorescence assay for the voltage gated ion channel Kv1.3 in Jurkat cells
Type: cell-based
Settings: Jurkat; read-out: KV1,3 antagonist activity [% Inhibition at 10 μM]
Method: 2. Assay for the Voltage Gated Ion Channel Kv1.3 Assays were performed and analyized with a FLIPR^TETRA device as specified above. Compounds for inhibition of ion channel Kv1.3 were assayed in Jurkat cells recombinantly expressing human Kv1.3. For high throughput screening a thallium-sensitive, fluorescence-based assay was used. […] The fluorescence signals by increasing potassium were then compared in the absence and presence of compounds. […]
VALUE_KIND: inhibition at 10 µM (%)
Could you give me the number in %? Just the number is fine.

CCCCC(=O)N[C@H]1C[C@H]2COc3cccc(c3)C(=O)N(C)CC[C@H](NC(=O)OCc3ccccc3)C(=O)N2C1 [Ex. 166] : 20
CN1CC[C@H](NC(=O)Cc2cccc3ccccc23)C(=O)N2C[C@@H](NC(=O)Cc3ccc4ccccc4c3)C[C@H]2COc2cccc(c2)C1=O [Ex. 177] : 54
CCCCC(=O)N[C@H]1C[C@H]2COc3cccc(c3)C(=O)N(C)CC[C@H](NC(=O)c3ccc4ccccc4c3)C(=O)N2C1 [Ex. 171] : 12

Kindly review the next molecule as well.
Please list inhibition at 10 µM recorded for the molecule CN1CCC(NC(=O)OCc2ccccc2)C(=O)N2CC(NC(=O)Cc3ccc4ccccc4c3)CC2COc2cccc(c2)C1=O (stereo not shown) [Ex. 168] 44
